assay: The compound was tested for bioavailability in dogs; type: ADME, organism-based, Canis lupus familiaris; conditions: dog, in vivo
Parameter Measured: bioavailability (%)
Note: unit % is implicit; provide only the numeric part.

Note down bioavailability recorded for O=S(=O)(Nc1ccc(CCNC[C@H](O)c2cccnc2)cc1)c1ccc(-c2noc(Cc3ccc(F)c(F)c3)n2)cc1
54

----------
assay: The compound was tested for oral bioavailability in dogs; assay type: ADME, organism-based, Canis lupus familiaris; settings: dog, in vivo
Parameter Measured: bioavailability (%)
Give the value in % but do not write % after it.

Note bioavailability for the molecule shown: O=S(=O)(Nc1ccc(CCNC[C@H](O)c2cccnc2)cc1)c1ccc(-c2noc(Cc3ccc(OC(F)(F)F)cc3)n2)cc1
30
